System: HIV-1NL4-3 Wild Type
Experiment: Luminescence reduction assay, MT4 cells infected with HIV-1NL4-3 luciferase reporter virus, wild type
Type: cell-based
Settings: Human immunodeficiency virus 1, MT4, MT4 cells, 2% FCS
measurement type: log10 EC50 (log10 of the value in µM)
The base-10 logarithm of EC50, taken with EC50 in µM, is what appears here.

Here is how some compounds turned out for log10 EC50.
O=C1CN(C(=O)c2cc(-c3cc(F)cc(OC(F)F)c3)n(-c3ccnc(Cl)c3)n2)CN1 [Example 68]    -1.21
O=C1CN(C(=O)c2cc(-c3cc(Br)cc(OC(F)(F)F)c3)n(-c3ccc(F)nc3)n2)CCN1 [Example 40]    -1.89
O=C1CN(C(=O)c2cc(-c3cc(F)cc(Cl)c3)n(-c3cccc(Cl)n3)n2)CN1 [Example 2]    -0.57
O=C1CN(C(=O)c2cc(-c3cnc(F)c(Cl)c3)n(-c3cccc(Cl)c3)n2)CN1 [Example 110]    -1.62
O=C1CN(C(=O)c2cc(-c3cc(F)cc(OC(F)(F)F)c3)n(-c3ccnc(Cl)c3)n2)CN1 [Example 62]    -1.36
COc1cc(OC(F)(F)F)cc(-c2cc(C(=O)N3CCNC(=O)C3)nn2-c2ccnc(Cl)c2)c1 [Example 87]    -0.96

Given the compound O=C(c1cc(-c2cc(Cl)cc(OC(F)(F)F)c2)n(-c2cccnc2)n1)N1CC[S+]([O-])C1 (racemic) [Example 78] , what is its reported log10 EC50? -1.11

Given the compound O=C(c1cc(-c2cc(F)cc(Cl)c2)n(-c2cccnc2)n1)N1CCSC1 [Example 5] , what is its reported log10 EC50? -1.64

Given the compound Nc1ccc(-n2nc(C(=O)N3CNC(=O)C3)cc2-c2cc(F)cc(Cl)c2)cn1 [Example 12] , what is its reported log10 EC50? -0.72

Given the compound COc1cc(Br)cc(-c2cc(C(=O)N3CCNC(=O)C3)nn2-c2cccnc2)c1 [Example 95] , what is its reported log10 EC50? -2.30

Given the compound COc1cc(OC(F)(F)F)cc(-c2cc(C(=O)N3CNC(=O)C3)nn2-c2ccnc(Cl)c2)c1 [Example 86] , what is its reported log10 EC50? -1.85

Given the compound O=C(c1cc(-c2cc(Br)cc(OC(F)(F)F)c2)n(-c2ccc[n+]([O-])c2)n1)N1CCS(=O)(=O)C1 [Example 33] , what is its reported log10 EC50? -1.16

Given the compound COc1cc(-n2nc(C(=O)N3CNC(=O)C3)cc2-c2cc(Br)cc(OC(F)(F)F)c2)ccn1 [Example 55] , what is its reported log10 EC50? -2.52

----------
Test system: HIV-1NL4-3 Wild Type
Assay: Luminescence reduction assay, MT4 cells infected with HIV-1NL4-3 luciferase reporter virus, wild type
Assay type: cell-based
Details: Human immunodeficiency virus 1, MT4, MT4 cells, 2% FCS
A collection of compounds and their measured EC50
Reply numerically in µM, unit not repeated.

What value of EC50 on HIV-1NL4-3 Wild Type does O=C1CN(C(=O)c2cc(-c3ccnc(Cl)c3)n(-c3cccc(Cl)c3)n2)CCN1 [Example 115] have? 0.027

What value of EC50 on HIV-1NL4-3 Wild Type does O=C1CN(C(=O)c2cc(-c3cc(F)cc(OC(F)(F)F)c3)n(-c3ccnc(Cl)c3)n2)CCN1 [Example 63] have? 0.354

What value of EC50 on HIV-1NL4-3 Wild Type does O=C1CN(C(=O)c2cc(-c3cncc(F)c3)n(-c3ccc(F)c(Cl)c3)n2)CCN1 [Example 99] have? 0.113

What value of EC50 on HIV-1NL4-3 Wild Type does O=C1CN(C(=O)c2cc(-c3cc(F)cc(Br)c3)n(-c3cccnc3)n2)CCN1 [Example 91] have? 0.006

FYI, the data here is from patent US9296720B2.
